# conditionsUsed: acidic group
For each entry below, report its pKa value.

Kindly note the recorded pKa for O/N=C(/Cl)c1ccccc1 , which is 9.8

Kindly note the recorded pKa for O=C1CCc2cc([N+](=O)[O-])ccc2C1 , which is 10.1

Kindly note the recorded pKa for Oc1nc2cc3c(cc2[nH]1)CCCC3 , which is 12.2

Kindly note the recorded pKa for Cc1cc(Cl)ccc1O , which is 9.6

Kindly note the recorded pKa for O=C(O)c1cccc[n+]1[O-] , which is 3.54

Kindly note the recorded pKa for CC(=O)c1ccc([N+](=O)[O-])cc1C(=O)O , which is 3.27

Kindly note the recorded pKa for Cc1cc([N+](=O)[O-])cc(C)c1O , which is 7.22

Kindly note the recorded pKa for Oc1cccc2c1Nc1ccccc1N2 , which is 10.9

Kindly note the recorded pKa for O=S(=O)(Nc1ccccc1)c1ccc(Cl)cc1 , which is 7.98

Kindly note the recorded pKa for O=C1CCC(O)=C1O , which is 4.8

Kindly note the recorded pKa for CC(C)(/C=C/C(=O)O)c1cc(Br)ccc1O , which is 4.46

Kindly note the recorded pKa for Cc1cc(O)cc(C)c1[N+](=O)[O-] , which is 8.25

Kindly note the recorded pKa for Nc1nc2nc[nH]c2c([O-])[nH+]1 , which is 9.39

Kindly note the recorded pKa for O=c1c2[nH]cnc2ncn1[O-] , which is 10.1

Kindly note the recorded pKa for CC1CC(C(=O)O)=[N+]([O-])C1(C)C (configuration not stated) , which is 2.85

Kindly note the recorded pKa for [O-]c1nc(S)c2[nH]cnc2n1 , which is 11.4

Kindly note the recorded pKa for CC(C)(C)CCC(=O)O , which is 4.83

Kindly note the recorded pKa for Nc1cc2ccccc2cc1O , which is 9.35

Kindly note the recorded pKa for C[C@@H]1CC[C@H](C)[C@H]1C(=O)O , which is 4.69

Kindly note the recorded pKa for O=[N+]([O-])c1cc(O)ccc1O , which is 7.42

Kindly note the recorded pKa for Clc1c(Cl)c(Cl)c2[nH]nnc2c1Cl , which is 4.52

Kindly note the recorded pKa for CC(=O)C(C)C(=O)c1ccccc1 (configuration not stated) , which is 11.1

Kindly note the recorded pKa for OCC[NH+](CCc1nnn[nH]1)CCc1nnn[nH]1 , which is 4.23

Kindly note the recorded pKa for Oc1cc(-c2ccccc2)n(-c2ccccc2)n1 , which is 12.9

Kindly note the recorded pKa for CCSC(C)(O)O , which is 12.1

Kindly note the recorded pKa for O=C(N/N=C/c1ccccc1[O-])c1ccncc1 , which is 11.3

Kindly note the recorded pKa for O=C(O)c1cc(-c2ccccc2)n[nH+]c1NCC[NH+]1CCOCC1 , which is 1.1

Kindly note the recorded pKa for N#Cc1ccc(CC(C#N)C#N)cc1 , which is 11

Kindly note the recorded pKa for Cn1ncnc1/N=N/O , which is 4.45

Kindly note the recorded pKa for CO[C@H]1C[C@H]1C(=O)O , which is 4.76

Kindly note the recorded pKa for O=P(O)(O)C([NH2+]Cc1cccc[nH+]1)c1ccccc1O (configuration not stated) , which is 2.25

Kindly note the recorded pKa for [NH3+]C(CC(=O)O)C(=O)NC(CC(=O)O)C(=O)O (configuration not stated) , which is 2.7

Kindly note the recorded pKa for CC(C)C(=O)CC(=O)C(C)C , which is 9.86

Kindly note the recorded pKa for C[Si](C)(CCl)CCCC(=O)O , which is 4.97

Kindly note the recorded pKa for Oc1ccc(-c2ccc(O)cc2)cc1 , which is 9.4

Kindly note the recorded pKa for Oc1cccc2c1-c1cccc(O)c1-2 , which is 8.35

Kindly note the recorded pKa for CC(C)(C(=O)O)C(C(N)=O)c1ccccc1 (configuration not stated) , which is 4.8

Kindly note the recorded pKa for S=C1NC(=S)C(c2ccccc2)N1 (configuration not stated) , which is 8.15

Kindly note the recorded pKa for Cc1csc(-c2cccc(NS(=O)(=O)c3ccc(N)cc3)c2)n1 , which is 9.2

Kindly note the recorded pKa for O=C(O)C#CC[NH+]1CCOCC1 , which is 1.79

Kindly note the recorded pKa for Cc1ccc(S(=O)(=O)NCC[NH+](CC(=O)[O-])CC(=O)[O-])cc1 , which is 7.86

Kindly note the recorded pKa for O=C(O)C[C@]1(O)C[C@@H]2C=C[C@H]1C2 , which is 4.36

Kindly note the recorded pKa for NC(=[NH2+])NOCC(=O)O , which is 2.69

Kindly note the recorded pKa for CC(=O)ONc1cc(=O)n(C)c(=O)n1C , which is 7.01

Kindly note the recorded pKa for COc1ccc(O)c(C)c1 , which is 10.2

Kindly note the recorded pKa for O=C(O)c1ccc(CO)cc1 , which is 4.18

Kindly note the recorded pKa for COC(=O)Nc1ncnc2nc[nH]c12 , which is 9.68

Kindly note the recorded pKa for O=[N+]([O-])c1cc(Cl)c(O)c(Cl)c1 , which is 3.7

Kindly note the recorded pKa for Cc1cccc(S(=O)(=O)O)c1 , which is -6.56

Kindly note the recorded pKa for C=CC[NH+](CC=C)CCCNC(=O)/C=N/O , which is 8.14

Kindly note the recorded pKa for CC1(C)CC=CC(=O)C1 , which is 12.4

Kindly note the recorded pKa for On1nnc2ccc(Br)cc21 , which is 3.97

* * *

For each entry below, report its pKa value.
# conditionsUsed: basic group
Kindly provide the number alone.

Kindly note the recorded pKa for COc1cccc(CN)c1OC , which is 9.41

Kindly note the recorded pKa for O=P([O-])([O-])C(NCc1ccncc1)c1ccccc1[O-] (stereo not drawn) , which is 12.2

Kindly note the recorded pKa for Oc1cccc2nccnc12 , which is 0.85

Kindly note the recorded pKa for Cc1cc2nc[nH]c2cc1C , which is 6.04

Kindly note the recorded pKa for CC(C)Nc1ncnc2[nH]ncc12 , which is 4.62

Kindly note the recorded pKa for C1CN2CC[C@@H]3OC[C@H]1[C@@H]32 , which is 9.44

Kindly note the recorded pKa for C1CNCC[NH2+]CCN1 , which is 6.97

Kindly note the recorded pKa for Oc1ccc(/C=N/c2ncc3nc[nH]c3n2)cc1 , which is 3.27

Kindly note the recorded pKa for CCCCCCN(CC(C)O)CC(C)O (stereo not drawn) , which is 8.5

Kindly note the recorded pKa for CSc1ccc(N)c(I)c1 , which is 2.45

Kindly note the recorded pKa for CN(C)Cc1cc(/N=N/c2ccccc2)ccc1[O-] , which is 10.2

Kindly note the recorded pKa for CCCCNC , which is 10.8

Kindly note the recorded pKa for Cc1cccc(C)c1/C(=N/CCCN(C)C)c1ccccc1 , which is 8.7

Kindly note the recorded pKa for Nc1ncnc2nn([C@@H]3C[C@@H](O)[C@H](CO)O3)nc12 , which is 3.1

Kindly note the recorded pKa for CCCCCN(CCO)CC(C)O (stereo not drawn) , which is 8.9

Kindly note the recorded pKa for CC(C)N(C)C , which is 10.3

Kindly note the recorded pKa for NCCCCOc1c2ccccc2cc2ccccc12 , which is 9.94

Kindly note the recorded pKa for Nc1nnnn1-c1ccccc1 , which is 1.12

Kindly note the recorded pKa for C[NH+](C)CCCCNc1c2ccccc2nc2cccc([N+](=O)[O-])c12 , which is 6.9

Kindly note the recorded pKa for CN1C(=N)C(C)(C)c2ccccc21 , which is 9.25

Kindly note the recorded pKa for O=P([O-])(O)C([NH2+]Cc1cccnc1)c1ccccc1O (stereo not drawn) , which is 3.14

Kindly note the recorded pKa for CC1CCCC(C)(C)N1C (stereo not drawn) , which is 10.8

Kindly note the recorded pKa for Cc1ccccc1/N=C/N(C)C , which is 8.27

* * *

For each entry below, report its pKa value.
# conditionsUsed: acidic group
Kindly provide the number alone.

Kindly note the recorded pKa for CCOC(=O)C(Cc1ccccc1)C(C)=O (configuration not stated) , which is 11.8

Kindly note the recorded pKa for Oc1cnoc1 , which is 7.75

Kindly note the recorded pKa for CC1(C)[C@@H]2CC[C@](C(=O)O)(C2)[C@@H]1O , which is 4.83

Kindly note the recorded pKa for CC[NH+](CC)Cc1cccc(C)c1O , which is 10

Kindly note the recorded pKa for CCOC(=O)C(=NO)C(=O)OCC , which is 5.48

Kindly note the recorded pKa for Nc1cccc2c(O)cccc12 , which is 10.3

Kindly note the recorded pKa for Cc1ccc(C(=O)O)c(C)c1 , which is 4.18

Kindly note the recorded pKa for Nc1ccc(S(=O)(=O)Nc2ccncn2)cc1 , which is 6.17

Kindly note the recorded pKa for O=[N+]([O-])c1n[nH]c(-n2cnc(Br)n2)n1 , which is 1.63

Kindly note the recorded pKa for O=C([O-])C[NH+](CC(=O)[O-])Cc1cc([N+](=O)[O-])ccc1O , which is 6.18

Kindly note the recorded pKa for Nc1ncnc2cn[nH]c12 , which is 10.2

Kindly note the recorded pKa for O=C1C=C(S(=O)(=O)[O-])c2cn[nH]c2/C1=N\O , which is 5.85

Kindly note the recorded pKa for CCC[Se](=O)O , which is 5.25

Kindly note the recorded pKa for C[n+]1ccc(O)nc1 , which is 1.91

Kindly note the recorded pKa for CCCCOc1ccc(C(=O)O)cc1 , which is 4.48

Kindly note the recorded pKa for CCC#CC#CC#CC(=O)O , which is 1.67

Kindly note the recorded pKa for O=C(O)CC1CCCCC1 , which is 4.8
